# Measured On: Endoribonuclease toxin MazF (Escherichia coli K-12)
# Sequence (P0AE70 whole entry): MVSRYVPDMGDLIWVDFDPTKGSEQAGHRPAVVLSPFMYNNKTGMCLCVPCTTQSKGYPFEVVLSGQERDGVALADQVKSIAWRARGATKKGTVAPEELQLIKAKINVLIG
# Method Description: MazF toxin RNase activators, dose response, biochemical, fluorescence, single-stranded RNA substrate, uHTS hits (AID 588481)
# Format: functional
The source made the active and inactive calls.
Can you answer with just one of these options? active, inactive

Before answering, review these 3 worked examples.
CCOc1cccc(C2C(C(=O)c3ccc(C)o3)=C(O)C(=O)N2c2nccs2)c1 (stereo not given) = active
O=C(Nc1ccc(Cl)cc1Cl)NC1CCN(S(=O)(=O)c2ccc(F)cc2)CC1 = active
CCCCNC(=O)/C(C#N)=c1\s/c(=C\c2ccccc2OC(F)F)c(=O)n1CCCOC = inactive

Prompt: Field: outcome | Entry: `CCCCOc1ccc(OCCCC)c2c1NC1(N2)C(=O)N(C(C)=O)c2ccccc21`
Completion: inactive

Prompt: Please give the result for `CN(C)c1ccc(/C=N/NC(=O)c2cnc3ccccc3c2)cc1` too.
Completion: inactive

----------
# Measured On: Short transient receptor potential channel 4 (Mus musculus)
# Sequence (Q9QUQ5 whole entry): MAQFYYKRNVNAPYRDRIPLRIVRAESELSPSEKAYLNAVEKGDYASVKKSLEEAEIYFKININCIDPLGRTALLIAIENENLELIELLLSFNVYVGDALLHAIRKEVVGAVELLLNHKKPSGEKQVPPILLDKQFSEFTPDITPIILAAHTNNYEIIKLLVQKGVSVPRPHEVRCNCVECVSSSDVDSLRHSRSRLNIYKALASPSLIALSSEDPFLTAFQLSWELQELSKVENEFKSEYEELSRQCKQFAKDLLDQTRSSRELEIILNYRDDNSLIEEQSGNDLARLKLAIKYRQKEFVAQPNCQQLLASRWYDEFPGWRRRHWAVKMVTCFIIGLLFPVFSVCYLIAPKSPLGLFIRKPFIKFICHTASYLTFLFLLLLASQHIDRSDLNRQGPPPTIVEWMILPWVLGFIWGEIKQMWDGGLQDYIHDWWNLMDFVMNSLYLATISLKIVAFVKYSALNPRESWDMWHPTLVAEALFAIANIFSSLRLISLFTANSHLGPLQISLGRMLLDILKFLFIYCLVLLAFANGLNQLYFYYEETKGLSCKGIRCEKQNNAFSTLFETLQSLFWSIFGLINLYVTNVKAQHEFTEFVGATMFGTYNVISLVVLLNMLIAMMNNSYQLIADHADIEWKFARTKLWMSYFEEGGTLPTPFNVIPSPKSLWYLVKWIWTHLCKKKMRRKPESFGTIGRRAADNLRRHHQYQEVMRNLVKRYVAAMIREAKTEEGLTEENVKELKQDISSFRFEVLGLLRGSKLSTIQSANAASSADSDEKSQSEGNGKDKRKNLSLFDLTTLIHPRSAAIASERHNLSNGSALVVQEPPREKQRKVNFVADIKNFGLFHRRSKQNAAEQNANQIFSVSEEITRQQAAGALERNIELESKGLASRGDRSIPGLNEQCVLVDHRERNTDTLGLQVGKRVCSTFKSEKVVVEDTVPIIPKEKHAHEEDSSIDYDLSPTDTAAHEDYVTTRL
# Method Description: mouse TRPC4 channel inhibitors, dose response, cell-based, HEK293 TRPC4/mu-opioid, Fluo-4 calcium (AID 434942);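 further: potency of inhibitors blocking the TRPC4 calcium response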
# Assay type: functional
Activity calls are given as the source filed them.
In this section we review reported EC50 values for a set of compounds.

N=c1c2c(n(Cc3ccc(Cl)cc3)c3c1CCC3)CCC2 = 7.5 µM (active)
OC(CNC1CCCc2ccccc21)COc1c(Cl)cccc1Cl (centres undefined) = 1.33 µM (active)
Nc1c2c(nc3ccccc13)CCC2 = 4.22 µM (active)
CCCSc1nc(N)nc(-c2cccs2)c1C#N = 2.66 µM (active)
Cc1cccc2nc(CSc3ccc(Cl)cc3)cn12 = 4.22 µM (active)

Prompt: For the compound shown here, Cc1ccc(CNC(C)c2ccccc2)cc1 (centres undefined) , give the reported EC50.
Completion: 6.68 µM (active)

Prompt: Then this compound: `Cc1cccn2cc(-c3c[nH]c4ccccc34)nc12`
Completion: 5.96 µM (active)

Prompt: Then what about the compound `Cc1nc(Cl)nc(N(C)c2ccccc2)c1[N+](=O)[O-]` ?
Completion: 13.3 µM (active)

Prompt: Same lookup for COc1ccc(CN2CCCC(C(=O)c3sccc3C)C2)cc1O (centres undefined) , please.
Completion: 11.9 µM (active)

----------
# Measured On: Nonstructural protein 1 (Influenza A virus, UniProt Q194T2)
# Sequence (Q194T2 whole entry): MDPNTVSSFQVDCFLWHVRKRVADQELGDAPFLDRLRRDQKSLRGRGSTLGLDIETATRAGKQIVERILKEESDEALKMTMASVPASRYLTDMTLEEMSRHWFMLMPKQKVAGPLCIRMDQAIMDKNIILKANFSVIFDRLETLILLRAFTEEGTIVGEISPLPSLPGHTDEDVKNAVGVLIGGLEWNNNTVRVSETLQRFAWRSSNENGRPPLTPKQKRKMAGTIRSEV
# Format: functional, Influenza A virus (A/California/07/2009(H1N1))
Calls of active or inactive are those of the source.
IC50 by entry:

O=[N+]([O-])c1ccc(O)c(Nc2c([N+](=O)[O-])ccc3nonc23)c1 = 64.5 µM (active)

Continue with the molecule presented below.
Prompt: Kindly state the measured IC50 obtained for `Cc1[nH]n(-c2ccccc2)c(=O)c1N=Nc1ccc2c(c1)OCCO2` with Nonstructural protein 1 (Influenza A virus, UniProt Q194T2).
Completion: 41.2 µM (active)

----------
# Measured On: G-protein coupled receptor 55 (Homo sapiens)
# Sequence (Q9Y2T6 whole entry): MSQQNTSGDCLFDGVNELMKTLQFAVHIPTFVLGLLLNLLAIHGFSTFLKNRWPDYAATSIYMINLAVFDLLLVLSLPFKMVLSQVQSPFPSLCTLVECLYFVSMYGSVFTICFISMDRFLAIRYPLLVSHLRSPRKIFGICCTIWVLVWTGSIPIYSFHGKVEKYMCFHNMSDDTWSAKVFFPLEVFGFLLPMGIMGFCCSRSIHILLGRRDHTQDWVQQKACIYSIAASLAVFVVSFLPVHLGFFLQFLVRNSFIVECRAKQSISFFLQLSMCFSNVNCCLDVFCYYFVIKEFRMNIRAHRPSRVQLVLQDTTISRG
# Method Description: GPR55 agonists via beta-arrestin recruitment, primary screen, imaging, U2OS cells, beta-arrestin-GFP redistribution (AID 1961)
# Format: functional
Calls of active or inactive are those of the source.
The reply should be one of these categories: active, inactive

COc1ccc(C(=O)NC(=S)NCc2ccc(-c3nc4ccccc4o3)cc2)cc1OC = inactive
CCOc1cc(C2Nc3cccc4cccc(c34)N2)ccc1O = active
CCOc1ccc(C(=O)C(CCC(CN(C)C)C(=O)c2ccc(OCC)cc2)CN(C)C)cc1 (centres undefined) = inactive

Next item in the queue.
Prompt: Any idea what this test logged for CC1=CC2/C=C(\C)CCC(O)C(O)/C=C/C(=O)C23C(=O)NC(CC(C)C)C3C1C (centres undefined) ?
Completion: inactive
